# Tested System: T1, DFNB31_3, Q9P202
# T1 sequence (Q9P202 811-907, limits assumed, looked up): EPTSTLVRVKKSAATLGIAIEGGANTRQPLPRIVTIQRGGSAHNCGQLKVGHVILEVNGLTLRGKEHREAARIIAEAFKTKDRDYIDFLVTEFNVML
# Assay Overview: holdup assay
# Set-up: key: below the threshold = too weak to quantify, mostly under pKd 3.1 to 4
# Details: plain residues with an end cap or a label only (N-terminal biotin on a linker: ado-ado)
Assay Readout: pKd

Here's what some known entries look like.
- RRISSLESEV [GRIN2C, Q14957]: below the threshold
- TPPAAKKSRI [BAZ1A, Q9NRL2]: 4.08
- TSQESEDTYL [TBC1D10A, Q9BXI6]: 4
- PRISRSQSEL [CCDC134, Q9H6E4]: 3.48
- FNSYSLTGYV [CLDN2, P57739]: below the threshold

State the recorded pKd for this entry: SSALYGESDL [ACTN2, P35609]
3.64

How about this binder: GSGAVEMESV [AQP6, Q13520]
below the threshold

How about this binder: RHGSCVETSL [TMEM151B, Q8IW70]
below the threshold

How about this binder: GNSVLKSTQF [SLC22A12, Q96S37]
3.56
